B1: Osa-1-4 twister ribozyme (parent)
chain: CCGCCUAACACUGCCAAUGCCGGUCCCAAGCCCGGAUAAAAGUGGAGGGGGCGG

Variants of: B1
Test details: self-cleavage, relative activity (ratio to wild type); higher = more cleavage; co-transcriptional
Given measured self-cleavage, output true (1) if it is greater than or equal to 0.07 and false (0) if not.

- Item sequence: "CCGCCUAACACUGCCAAUGCCGGUCCCAAGGCCGGAUAAAAGUGAAGGGGGCGG [C31G G45A]"
  Cat: "false (0)"
- Item sequence: "CCGCCUAACAAUGCCAAUGCCGGUCCCAAGCCCGGAGAAAAGUGGAGGGGGCGG [C11A U37G]"
  Cat: "true (1)"
- Item sequence: "CCGCCUAACAAUGCCAAUGCCGGUCCCAAGCCCGGAUAAAAGUGGUGGGGGCGG [A46U C11A]"
  Cat: "false (0)"
- Item sequence: "CCGCCUAACACUGCCAAUGCCGGUCCCAAGCCCGGAUAAAAGUUGAGGGGGUGG [C52U G44U]"
  Cat: "true (1)"
- Item sequence: "CCGCCUAACACUGCCAAUGCCUGUCCCAAGCCCGGAUAAAAGUGGAGGGGGCCG [G22U G53C]"
  Cat: "false (0)"
- Item sequence: "CCGCCUAACACUGCCGAUGCCGGUCCCAAGCCCGGAUAAAAGUGGAGGGAGCGG [A16G G50A]"
  Cat: "true (1)"
- Item sequence: "CCGCCUAACACUGCCAAGGCCGGUCCCAAGCCCGGAUAAAAGUGGAGGAGGCGG [G49A U18G]"
  Cat: "true (1)"
- Item sequence: "CCGCCUAACACUGCCAAUGCCGGUCCCAAGCCCGGAUAAAAGUGAAGGGCGCGG [G45A G50C]"
  Cat: "false (0)"
- Item sequence: "CCGCCUAACACUGCGAAUGCCGGUCCCAAGCCCGGAUAAAAGUGUAGGGGGCGG [C15G G45U]"
  Cat: "false (0)"
- Item sequence: "CCGCCUAACACUGCCAAUUCCGGUCCCAAGCCCUGAUAAAAGUGGAGGGGGCGG [G19U G34U]"
  Cat: "true (1)"
